# RUN DESCRIPTION: qHTS assay for MDR1-selective chemotherapeutics: Primary screen using the drug-selected MDR subline cells KB-V1; note: nearly all actives have a fitted effect of over 60% in size
# MEASUREMENT CONDITIONS: KB-V1 MDR cells viability, CellTiter-Glo, 72 h; series mostly up to 46.1 µM
Hit rate of the full screen: of about 400,000 compounds, about 13,000 (3.2%) were called active. About 18% were inconclusive and are not listed. Calls come from the whole dose curve; as a rule, active = well fitted cell-killing curve with a large enough effect; inconclusive = small, poorly fitted or top-dose-only effect, or effect the other way; inactive = flat fitted curve, though single readings scatter. Shown is part of a subset that was picked to be rich in actives.
Outcome codes: true (active), false (inactive)

COMPOUND | CLASSIFICATION
O=C(CCn1c(=O)c2ccccc2n(Cc2ccc(Cl)cc2)c1=O)NCc1ccc2c(c1)OCO2 | false
COc1cccc(NC(=O)CSC2=Nc3ccccc3C3=NC(CC(=O)NC4CCCCC4)C(=O)N23)c1 (configuration not stated) | false
CCOC(=O)Nc1ccc(NC(=O)OCC)cc1 | false
CC(C)(C)c1ccc(C(=O)C[n+]2cccc3cc(Cl)ccc32)cc1 | false
COc1ccc(C)cc1NC(=O)NCc1ccccn1 | false
COC(=O)Cc1ccc(OC2(C)CCN(Cc3ccc4c(c3)OCCO4)C2)cc1 (configuration not stated) | false
Cc1cccc(C(=O)NCC(=O)OCC(=O)N2CC3(C)CC2CC(C)(C)C3)c1 (configuration not stated) | false
CCCCNC(=O)C1CCCN(c2nnc(C)c3c(C)n(-c4ccc(Cl)cc4)nc23)C1 (configuration not stated) | false
N#Cc1ccc[n+](CC(=O)c2ccc(F)cc2)c1 | false
CCOc1ccc(NC(=O)Nc2ccc(N(C)C(C)=O)cc2)cc1 | false
CCc1ccc(-c2cc(C(=O)NCc3ccco3)c3ccccc3n2)s1 | false
CC(=O)c1c(C)[nH]c(C(=O)COC(=O)c2cccs2)c1C | false
CCCCC(CCC(=O)Nc1ccc(C(=O)OCC)cc1)C(=O)O (configuration not stated) | false
CCCS(=O)(=O)NC(=O)C1(C)CCCN(C(=O)c2ccnc(Cl)c2)C1 (configuration not stated) | false
COC(=O)c1ccccc1NS(=O)(=O)c1ccc2c(c1)CCCN2C(C)=O | false
CC1(C(=O)NS(=O)(=O)c2ccccc2Cl)CCN1C(=O)c1cccc(F)c1 (configuration not stated) | false
CCC(C)NC(=O)c1ccccc1NC(=O)c1ccccc1N(C)S(C)(=O)=O (configuration not stated) | false
CCCNC(=O)c1cc(C2CCCCN2S(=O)(=O)c2cn(C)cn2)on1 (configuration not stated) | false
COC(C(=O)Nc1ccc(S(=O)(=O)Nc2ccc(C)c(C)c2)cc1)c1ccccc1 (configuration not stated) | true
CCCCc1nc2ccc(F)cc2cc1C | false
C[C@@H]1CN([C@@H](C)CO)S(=O)(=O)c2ccc(-c3ccc(C(=O)N(C)C)cc3)cc2O[C@@H]1CN(C)Cc1ccccc1C(=O)O | false
Cc1cccc(C(=O)N2CCc3cc(CNC(=O)Cc4ccc(F)cc4)ccc32)c1 | false
CCOc1ccc(NC(=O)Nc2cc(C)ccc2OC)cc1 | true
Cn1c(=O)c2c(nc(Oc3ccc(C#N)cc3)n2Cc2ccc(Cl)cc2Cl)n(C)c1=O | false
COc1ccc(C(=O)NC2CC(C)(C)NC(C)(C)C2)cc1OC | false
O=C(C1CCCO1)N1CCN(C(=O)C23CC4CC(CC(C4)C2)C3)CC1 (configuration not stated) | false
OC(c1ccc(Cl)c(F)c1)c1ncc(-c2ccccc2Cl)[nH]1 (configuration not stated) | false
COC(C(=O)NCc1ccccc1C)c1ccccc1 (configuration not stated) | false
CCCCCCN1CCN(C2CN(Cc3cn(CCCCCC)nn3)S(=O)(=O)C2)CC1 (configuration not stated) | false
CC1(C(=O)NS(=O)(=O)c2cccs2)CCN1C(=O)Cc1ccc(-c2ccccc2)cc1 (configuration not stated) | false
Cc1nc(C(F)(F)F)ccc1C(=O)N1CCC1(C)C(=O)NS(=O)(=O)c1ccccc1 (configuration not stated) | false
CCCCNC(=O)c1ccccc1NC(=O)c1ccccc1N(C)S(C)(=O)=O | true
O=C(Nc1ccc2nc(SCC(=O)N3CCc4ccccc43)sc2c1)c1ccccc1F | false
CCc1nc2ccc(C(=O)N3CCN(S(=O)(=O)CC)CC3)cn2c1N(C=O)CCC(C)C | false
Brc1nc2ncnc(NCc3ccco3)c2[nH]1 | false
C[C@H](NC(=O)CC[C@H]1O[C@@H](n2ccc(=O)[nH]c2=O)[C@H](O)[C@@H]1O)c1cccc2ccccc12 | false
Cc1cccc(S(=O)(=O)N(C)C[C@H]2OCc3cnnn3CCCC(=O)N([C@@H](C)CO)C[C@H]2C)c1 | false
CC(=NCc1ccco1)C1=C(O)c2ccccc2C1=O | false
COC(C(=O)Nc1ccc(C(C)=O)cc1)c1ccccc1 (configuration not stated) | false
COC(=O)c1ccc(CN2C(=O)C(Cc3ccccc3)ON=C2c2ncccc2C)o1 (configuration not stated) | false
O=c1[nH]nc(CSCc2ccccc2Cl)[nH]1 | false
CCC(C(=O)Nc1c(C)cccc1C)n1c(-c2cc(C)cs2)nc2ccccc21 (configuration not stated) | false

###

# RUN DESCRIPTION: qHTS assay for MDR1-selective chemotherapeutics: Primary screen using the drug-selected MDR subline cells KB-V1; note: nearly all actives have a fitted effect of over 60% in size
# MEASUREMENT CONDITIONS: KB-V1 MDR cells viability, CellTiter-Glo, 72 h; series mostly up to 46.1 µM
The campaign covered roughly 400,000 compounds. About 13,000 (3.2%) were called active. About 18% were inconclusive and are not listed. Calls come from the whole dose curve; as a rule, active = well fitted cell-killing curve with a large enough effect; inconclusive = small, poorly fitted or top-dose-only effect, or effect the other way; inactive = flat fitted curve, though single readings scatter. The sample holds actives, similar compounds and a random draw of the others, so the mix is not that of the screen.
Outcome codes: active, inactive

SMILES NOTATION | CLASSIFICATION
CN(C)c1ccc(/C=C/C=C/c2ccnc3ccccc23)cc1 | active
Cc1ccc(-c2c(N)nc3ncccn23)cc1 | inactive
O=[N+]([O-])c1cc(-c2nc(-c3ccccc3)no2)ccc1NCc1ccco1 | inactive
CCc1ccc(S(=O)(=O)N/N=C\c2ccc([N+](=O)[O-])o2)cc1 | inactive
CN(C)c1ccc(C=Nc2ccc(/C=C/c3ccnc4ccccc34)cc2)cc1 | inactive
CN(Cc1ccccc1)c1ccc(/C=C/c2ccnc3ccccc23)cc1 | inactive

###

# RUN DESCRIPTION: qHTS assay for MDR1-selective chemotherapeutics: Primary screen using the drug-selected MDR subline cells KB-V1; note: nearly all actives have a fitted effect of over 60% in size
# MEASUREMENT CONDITIONS: KB-V1 MDR cells viability, CellTiter-Glo, 72 h; series mostly up to 46.1 µM
Hit rate of the full screen: of about 400,000 compounds, about 13,000 (3.2%) were called active. Inconclusive results (about 18%) are left out. Calls come from the whole dose curve; as a rule, active = well fitted cell-killing curve with a large enough effect; inconclusive = small, poorly fitted or top-dose-only effect, or effect the other way; inactive = flat fitted curve, though single readings scatter. The full list was thinned out, with actives kept by preference.
Outcome codes: 1.0 for active, 0.0 for inactive

COMPOUND | CLASSIFICATION
COc1ccc(C(=O)Cc2cnn(-c3ccccc3)c2)c(O)c1 | 0.0
CC(C)C[C@H]1CNC(=O)C(=O)N1C[C@H]1CCCN1C[C@H](Cc1ccc(O)cc1)N1C[C@H](CC(C)C)N(CC2CCCCCC2)C(=O)C1=O | 0.0
CC1CCC2(CC1)NC(=O)N(CC(=O)NCc1ccco1)C2=O (stereo unspecified) | 0.0
COc1cccc(CNCc2c(C(=O)O)n(Cc3ccc(C)cc3)c3cc(C)ccc23)c1OC | 0.0
CCN1C(=O)[C@H]2[C@@H](c3ccc(C(F)(F)F)cc3)N[C@]3(CCCN(Cc4ccc(Br)cc4)C3=O)[C@H]2C1=O | 0.0
Cc1ccc(F)c(S(=O)(=O)NC(=O)C2(C)CCN2C(=O)c2ccco2)c1 (stereo unspecified) | 0.0
COc1ccc(CCNC(=O)CCCCn2c(=O)c3ccccc3n(Cc3ccccc3)c2=O)cc1OC | 0.0
COc1ccc(NC(=O)C2Cc3c(-c4ccc5c(c4)OCO5)ccnc3O2)cn1 (stereo unspecified) | 1.0
O=C(Nc1ccccn1)C1CCN(S(=O)(=O)c2ccccc2)CC1 | 1.0
N#Cc1ccc(OCC(=O)Nc2nc(-c3ccccn3)cs2)cc1 | 0.0
CC(C)(C)OC(=O)N1CCN(C(=O)c2[nH]c(C(F)(F)F)nc2-c2ccccc2)CC1 | 0.0
Cc1c(NC(=O)c2cc(=O)c3ccccc3o2)c(=O)n(-c2ccccc2)n1C | 0.0
Cc1cc(O)cc(O)c1C(=O)Cc1cnn(-c2ccccc2)c1 | 1.0
O=C1NC(O)CCN1C1CC(O)C(CO)O1 (stereo unspecified) | 0.0
Cc1cccc(-n2c(SCC(N)=O)nc3c(oc4ccccc43)c2=O)c1 | 0.0
CC(C)CNS(=O)(=O)c1ccc(CCC(=O)NCc2ccc(Cl)cc2)cc1 | 0.0
CCOC(=O)N1CCN(C(c2cccnc2)c2ccc3cccnc3c2O)CC1 (stereo unspecified) | 1.0
CCc1ccc(NC(=O)CN2CCSc3ccc(S(=O)(=O)N4CCCC4)cc32)cc1 | 1.0
O=C(CSc1nnc(-c2cccnc2)n1CCc1ccccc1)NCc1ccccc1 | 0.0
COc1cccc(-c2cnc3c(NC(C)=O)cc(-c4cccc(NC(C)=O)c4)cn23)c1 | 0.0
COCCn1c(C)cc(C2=NNC(=Nc3ccc(F)cc3)SC2)c1C | 1.0
CC(=O)NCCC(=O)Nc1cc(S(=O)(=O)N2CCOCC2)ccc1N1CCOCC1 | 0.0
COc1ccc(C(=O)Nc2c(Cl)cc(Cl)cc2C(=O)N2CCC(C)CC2)cc1 | 1.0
Cc1ccc(S(=O)(=O)NCCC(=O)NCc2ccc(Cl)cc2)cc1C | 0.0
Cc1cc2nc(-c3ccc(NC(=O)c4cc5ccccc5o4)cc3)oc2cc1C | 0.0
CC(=O)Nc1cc(-c2ccc(N3CCN(C)CC3)cc2)cn2c(-c3cccc(C(=O)N(C)C)c3)cnc12 | 0.0
C[C@H]1CN([C@@H](C)CO)C(=O)CCCn2nncc2CO[C@@H]1CN(C)Cc1ccc(Oc2ccccc2)cc1 | 0.0
CC(C)CCC(=O)Nc1cc(S(=O)(=O)N2CCOCC2)ccc1N1CCCC1 | 0.0
Cc1ccc(-c2nc(-c3cccnc3)sc2CC(=O)Nc2ccc(C)c(Cl)c2)cc1 | 1.0
Cc1ccc(CNC(=O)CCNS(=O)(=O)c2ccc3c(c2)oc(=O)n3C)cc1 | 0.0
CCc1ccc(NC(=O)c2nn(-c3ccc(C)cc3)c(=O)n(C)c2=O)cc1 | 0.0
O=C(Nc1ccccn1)C1CCN(S(=O)(=O)c2ccc3c(c2)OCCO3)CC1 | 0.0
N#CCSc1nc2c(c(=O)n1Cc1ccccc1)C1(CCCC1)Cc1ccccc1-2 | 0.0
C=CCn1c(C)cc(C2=NNC(=NCC)SC2)c1C | 0.0
Cc1cccc(-n2c(SCC(N)=O)nc3c(c2=O)C2(CCCCC2)Cc2ccccc2-3)c1 | 1.0
CCCCOC(=O)/C(C#N)=C/c1ccc(-c2cccc(C(F)(F)F)c2)o1 | 0.0
CC1CCCC(NC(=O)COC(=O)c2ccccc2C(=O)N(C)C2CCCCC2)C1C (stereo unspecified) | 0.0
CC(C)n1ncc2c(C(=O)N3CCN(Cc4cccs4)CC3)cc(C3CC3)nc21 | 0.0
Nc1cc(=O)c2[nH]cnc2[nH]1 | 0.0
CCN(CC)CCNc1ncnc2c1cnn2-c1cc(Cl)ccc1C | 0.0
COc1ccc(N(CCC#N)S(=O)(=O)c2ccc(Cl)cc2)cc1 | 1.0

Values compiled from PubChem BioAssay AID1347076.
